- System: Fibroblast
- Assay info: Incucyte cell viability with human fibroblast; note: unitless GR value; below 1 slowed growth and below 0 cell loss
- Type: toxicity, cell-based
- Run parameters: 18 h, 10 µM, compound concentration 10 uM, replicate number 1
Rule: measured Growth Rate below 0.3 gets YES; anything equal to or greater than 0.3 gets NO.

Compound	Classification
Oc1c(CN2CCCC2)cc(COCc2ccccc2)c2cccnc12	NO
C[C@@H](NC(=O)Cc1ccc(C2CC2)cc1)c1ccc(OCC(F)(F)F)cn1	YES
CCn1ccc(Nc2ncc3c(n2)-c2c(nn(C)c2-c2ccc(-c4cnn(C)c4)cc2Cl)CC3)n1	NO
Cn1nc(-c2ccc(C(N)=O)cc2)c2ccccc2c1=O	NO
C[C@H](CCC(=O)O)[C@H]1CC[C@H]2[C@@H]3CC[C@@H]4C[C@H](O)CC[C@]4(C)[C@H]3C[C@H](O)[C@]12C	NO
COC(=O)C1=C(C)NC(C)=C(C(=O)OC(C)C)C1c1cccc2nonc12 (stereo unspecified)	YES
COc1cc(Cl)c(C(=O)N[C@@H](CN[C@H]2CC[C@@H](N)CC2)Cc2ccc(C#N)cc2)cc1-c1ccc(CN[C@H](C)c2ccc(C)cc2)o1	YES
COc1ccc(CC(=O)NC(N/C(=N/C#N)Nc2cccc3ncccc23)C(C)(C)C)cc1OC (stereo unspecified)	NO
CC(=O)O[C@H]1C(=O)[C@@]2(C)[C@H]([C@H](OC(=O)c3ccccc3)[C@]3(O)C[C@H](OC(=O)[C@H](O)[C@@H](NC(=O)c4ccccc4)c4ccccc4)C(C)=C1C3(C)C)[C@]1(OC(C)=O)CO[C@@H]1C[C@@H]2O	YES
CCc1cc2c(cc1-c1cccc(S(=O)(=O)F)c1)C(C)(C)c1[nH]c3cc(C#N)ccc3c1C2=O	YES
CN(C)[C@H]1CC[C@H](Nc2ncc3ncnc(Nc4ccc(F)c(Cl)c4)c3n2)CC1	YES
Cc1nccn1-c1ccc(Sc2cccc(C3(C(N)=O)CCOCC3)c2)cc1	NO
CC[C@H](CO)Nc1nc(Nc2cccc(-c3ccccn3)c2)c2ncn(C(C)C)c2n1.Cl.O	NO
O=C(Cc1ccccc1)Nc1nnc(N2C[C@H]3C[C@@H]2CN3c2cccnn2)s1	YES
COc1cc(C(=O)NC2CCN(C)CC2)ccc1Nc1ncc(C(F)(F)F)c(NCc2ccc(C)cc2N(C)S(C)(=O)=O)n1.O=CO.O=CO	YES
CC(C)(O)c1cnc(N2C[C@@]3(CCC[C@](C)(Cn4cnc5ccc(C#N)cc54)C3)OC2=O)cn1	YES

###

- Tested on: Fibroblast
- Assay info: Incucyte cell viability with human fibroblast; note: unitless GR value; below 1 slowed growth and below 0 cell loss
- Format: toxicity, cell-based
- Run parameters: 0 h, 10 µM, compound concentration 10 uM, replicate number 1

Compound	Growth Rate
Cl.c1ccc2c(c1)CCC[C@H]2Nc1nc2ccccc2[nH]1	0.94
Clc1cccc(Nc2nccc(NCCCN3CCOCC3)n2)c1	-0.99
COc1cc(F)ccc1-c1ncnc(Nc2cccc(C[S@](C)(=N)=O)c2)n1 [ATUVECICLIB]	-0.58
CN1CCc2cc(Nc3ncc(C(F)(F)F)c(NCc4cc[nH]n4)n3)ccc2C1	-0.24
CC(C)Oc1ccc(F)c(-c2cnc(N)c(C(=O)Nc3cnccc3N3CCC[C@@H](C(=O)O)C3)n2)c1	0.44
Cc1cc(OC2CCS(=O)(=O)CC2)cc(C)c1-c1cccc(COc2ccc(C(=O)O)c(F)c2)c1	-0.85
C#Cc1cnc2[nH]cc(-c3cccc4c3CCN4C(=O)[C@@H]3CCCN3C#N)c2c1	-1
O=C(O)C[C@H]1CCn2c1c(Sc1ccc(Cl)cc1)c1ccc(F)cc12	-1
CCn1c(CNC(=O)c2ncc(C)nc2N)[n+](CC)c2ccc(C(=O)N(C)CCN(C)C)cc21.Cl.Cl.[Cl-]	-1
